Biological target: Nuclear receptor subfamily 1 group I member 2 (Homo sapiens) (UniProt O75469)
Sequence (O75469 whole entry, looked up): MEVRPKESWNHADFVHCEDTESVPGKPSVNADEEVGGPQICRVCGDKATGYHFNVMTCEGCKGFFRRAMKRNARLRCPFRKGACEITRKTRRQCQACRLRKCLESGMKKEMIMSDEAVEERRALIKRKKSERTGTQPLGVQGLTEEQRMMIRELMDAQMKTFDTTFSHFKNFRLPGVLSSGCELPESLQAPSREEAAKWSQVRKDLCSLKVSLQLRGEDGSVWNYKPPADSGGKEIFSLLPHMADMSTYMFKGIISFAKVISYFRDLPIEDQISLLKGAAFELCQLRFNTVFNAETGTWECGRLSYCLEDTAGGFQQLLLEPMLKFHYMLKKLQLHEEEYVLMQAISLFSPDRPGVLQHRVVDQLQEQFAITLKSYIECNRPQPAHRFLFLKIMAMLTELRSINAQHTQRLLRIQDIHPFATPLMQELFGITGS
Test: ATG_PXR_TRANS: Attagene TRANS-FACTORIAL HepG2 Assay for human Pregnane X Receptor (PXR) (AID 2283008)
Inconclusive results are not listed. Calls of active or inactive are those of the source. Rule for the calls: active = hit-call score of the fitted dose curve at least 0.9, where 1 is the maximum; inconclusive = response in the unintended direction; inactive = score below 0.9.
quantity_name: AC50

• CCCC(=O)OC/C=C(\C)CCC=C(C)C = inactive
• CC1=C(CC=O)C(C)(C)CCC1 = 1380 nM (active)
• Cc1ccccc1S(N)(=O)=O = inactive
• CCCCCCC1CCC(=O)O1 (centres undefined) = inactive

====

Assay: TOX21_p53_BLA_p5_viability: Viability Assessment in the Tox21 HCT-116 p53 Agonism Beta-lactamase Assay, Phase 5 (AID 2283600)
Records with an inconclusive call do not appear. Active and inactive are the calls of the source. How the source made its calls: active means hit-call score of the fitted dose curve at least 0.9, where 1 is the maximum; inconclusive means response in the unintended direction; inactive means score below 0.9.
quantity_name: outcome

* O=C1c2ccccc2C(=O)C1c1ccc2ccccc2n1 | inactive
* O=C(O)C(=O)Cc1c[nH]c2ccccc12 | inactive
* CCCCC(CC)COC(=O)C=Cc1ccc(OC)cc1 (stereo not drawn) | inactive
* CCN(CC)CCSC(=O)C(c1ccccc1)c1ccccc1 | inactive
* O=[N+]([O-])c1ccc2ncccc2c1 | inactive
* CSc1cnccn1 | inactive
* CO[Si](CCCNCCC[Si](OC)(OC)OC)(OC)OC | inactive
* CN(C(=O)CO)c1c(I)c(C(=O)NCC(O)CO)c(I)c(C(=O)NCC(O)CO)c1I (stereo not drawn) | inactive

Provide reported outcome for each item, in the same order as listed.
1. O=C(O)O
2. c1ccc(C(O[C@H]2CCCN(CCc3ccc4c(c3)OCO4)C2)c2ccccc2)cc1
3. Cc1cc(N)c2cc(NC(=O)Nc3ccc4nc(C)cc(N)c4c3)ccc2n1

1: inactive; 2: inactive; 3: inactive

Data provenance is PubChem BioAssay (EPA / NIEHS).
